Value source: ChEMBL document CHEMBL5308504

Biological target: Peregrin (Homo sapiens)
Settings: Compound concentration 20.0 uM, Protein concentration 2.0 uM, Result type QC Liability
Item-by-item account of ΔTm
API: value field is a number in °C; no unit string.

CCOC(=O)C1Cc2ccccc2CN1C(=O)c1ccc(SC)s1 (centres undefined) : -1.13
Cc1cc(Cl)ccc1S(=O)(=O)NC[C@H]1C2CCC(CC2)[C@@H]1/C=C\CCCC(=O)O : -2.88

So for CCN1C(=O)/C(=C(\NC2CCN(C)CC2)c2ccc3c(c2)OCO3)c2cc(C(C)=O)ccc21 , the logged ΔTm turned out to be -1.89

Summary for this compound, C=CC(=O)Nc1ccc2[nH]c(=O)n(C3CCN(Cc4ccc(-c5ccc6c(c5)NC(=O)CO6)cc4)CC3)c2c1 : ΔTm is -0.12

Form: compound = COc1ccccc1N1CCN(c2ncnc3c2cnn3-c2ccccc2)CC1 ; ΔTm = -1.23

For reference, reported ΔTm for CC(C)(C)NC(=O)c1cncn1C1CCN(c2ccc(-c3nnc(C(F)(F)F)o3)cn2)CC1 stands at -2.22

----------
Target: Peregrin (Homo sapiens)
Conditions: Compound concentration 20.0 uM, Protein concentration 2.0 uM, Result type QC Liability
Result Type: ΔTm

Solved entries:
CC[C@@H]1C(=O)N(C)c2cnc(Nc3ccc(C(=O)NC4CCN(C)CC4)cc3OC)nc2N1C1CCCC1 : 1.16 °C
Cc1[nH]nc(C(F)(F)F)c1Cc1sc2c(c1C(=O)N1C[C@](C)(O)CO1)c(=O)n(C)c(=O)n2C(C)C : -1.85 °C
COCCOCn1c(S(C)(=O)=O)nc2c1c(=O)n(C)c(=O)n2C : -2.72 °C

// compound CC(C)(O)CNC(=O)N1C(=O)N(c2cccc(C(F)(F)F)c2)C2=C(C(=O)CC2)[C@H]1c1ccc(C#N)cc1 , assay Peregrin (Homo sapiens), ΔTm value: -1.94 °C

Entry O=C1CN(c2ccccc2F)C(NCCN2CCOCC2)=C1c1nc2cc(Br)ccc2c(=O)[nH]1 under Peregrin (Homo sapiens) had ΔTm of -2.29 °C

----------
Target: Fibroblast growth factor receptor 3 (Homo sapiens) (UniProt P22607)
Sequence (P22607 23-806 limits assumed): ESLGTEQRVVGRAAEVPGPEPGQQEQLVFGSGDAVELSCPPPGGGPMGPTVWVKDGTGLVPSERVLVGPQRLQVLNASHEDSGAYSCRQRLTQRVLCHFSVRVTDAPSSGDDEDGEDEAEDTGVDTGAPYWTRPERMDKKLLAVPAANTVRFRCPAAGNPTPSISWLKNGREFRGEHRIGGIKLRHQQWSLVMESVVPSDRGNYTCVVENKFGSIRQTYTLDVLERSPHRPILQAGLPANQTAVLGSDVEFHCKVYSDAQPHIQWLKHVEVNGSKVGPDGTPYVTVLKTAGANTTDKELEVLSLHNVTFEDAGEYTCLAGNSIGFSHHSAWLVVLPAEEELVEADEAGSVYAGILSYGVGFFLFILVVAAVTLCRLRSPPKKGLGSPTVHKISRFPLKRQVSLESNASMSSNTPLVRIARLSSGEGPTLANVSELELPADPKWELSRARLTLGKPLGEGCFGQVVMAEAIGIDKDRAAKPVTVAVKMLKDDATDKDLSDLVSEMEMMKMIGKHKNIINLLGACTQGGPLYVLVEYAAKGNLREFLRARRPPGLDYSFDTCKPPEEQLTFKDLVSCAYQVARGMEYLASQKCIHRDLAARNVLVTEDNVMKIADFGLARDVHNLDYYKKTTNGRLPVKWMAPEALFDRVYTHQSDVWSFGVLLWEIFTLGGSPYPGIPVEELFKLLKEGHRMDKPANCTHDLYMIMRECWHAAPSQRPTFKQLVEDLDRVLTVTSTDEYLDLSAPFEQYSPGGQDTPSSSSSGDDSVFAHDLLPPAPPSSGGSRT
Conditions: Compound concentration 20.0 uM, Protein concentration 2.0 uM, Result type QC Liability
Description: Thermal Shift Assay. Domain: start/stop: P449-E759
Could you label it criterion met if measured ΔTm is 0.5 °C or higher, and criterion not met otherwise?

CNC(=O)c1c[nH]c2ccc(Nc3nccc(-c4ccccn4)n3)cc12 : criterion not met

Item N[C@@H]1CCCC[C@H]1Oc1ccc2ncc(-c3cc4ccccc4o3)n2n1 with ΔTm of 0.5 °C or above? criterion not met

Textbook exercise: given the entry Cn1cc(-n2cnc3c(NCc4nc5cc(Cl)c(Cl)cc5[nH]4)nc(N4CCOCC4)nc32)cn1 , state whether its ΔTm is greater than or equal to 0.5 °C. criterion met

Quick check: does Cc1ccc(-n2nc(C(C)(C)C)cc2NC(=O)Nc2ccccc2F)cc1 have ΔTm greater than or equal to 0.5 °C? criterion met

Threshold query (ΔTm >= 0.5 °C) on CC(=O)c1c(C)c2cnc(Nc3ccc(N4CCN(CCOCCOCCOCCNC(=O)COc5cccc6c5C(=O)N(C5CCC(=O)NC5=O)C6=O)CC4)cn3)nc2n(C2CCCC2)c1=O (centres undefined) criterion not met

Is ΔTm for CC(C)[C@H](CO)Nc1nc(Nc2ccc(C(=O)O)c(Cl)c2)c2ncn(C(C)C)c2n1 at or above 0.5 °C? criterion met

Is it the case that COc1cc(C(N)=O)nc(-c2cccc(C#C[C@]3(O)CCN(C)C3=O)c2)c1 has ΔTm reaching or exceeding 0.5 °C? criterion not met

Does ΔTm meet or surpass 0.5 °C for COc1cc(-c2cc3ncccc3c(OC[C@H]3CNC(=O)C3)n2)cc(OC)c1OC1CCOCC1 ? criterion met

Entry COc1ccc(CC[C@@H](OC(=O)[C@H]2CCCCN2C(=O)[C@@H](c2cc(OC)c(OC)c(OC)c2)C2CCCCC2)c2cccc(OCCN3CCOCC3)c2)cc1OC : is its ΔTm no less than 0.5 °C? criterion not met
